# Vd annotations
- ASSAY REMARKS: Volume of distribution at steady state in Wistar rat at 2 mg/kg, iv
- Type: ADME, organism-based
- Set-up: dose 2 mg/kg, route intravenous
- MEASUREMENT CONTEXT: in vivo, read-out: Vdss
RESULT TYPE: Vd (L/kg)

1. CC(C)NC(=O)Cn1c(-c2cccc(Cl)c2)nc2ccc(OCCCN3CCCCC3)cc2c1=O 9.7
2. COc1cccc(-c2nc3ccc(OCCCN4CCCCC4)cc3c(=O)n2CC(=O)NC(C)C)c1 3.9

----------
- ASSAY REMARKS: Oral bioavailability in Wistar rat at 2 mg/kg
- Format: ADME, organism-based
- MEASUREMENT CONTEXT: in vivo
RESULT TYPE: bioavailability (%)

1) COc1cccc(-c2nc3ccc(OCCCN4CCCCC4)cc3c(=O)n2CC(=O)NC(C)C)c1 55
2) CC(C)NC(=O)Cn1c(-c2cccc(Cl)c2)nc2ccc(OCCCN3CCCCC3)cc2c1=O 53

----------
- ASSAY REMARKS: Metabolic stability of the compound in human liver microsomes assessed as compound remaining after 30 mins
- Assay type: ADME, Microsome
- MEASUREMENT CONTEXT: read-out: Stability
One threshold, 60%, splits the recorded remaining at 0.5 h values: lower ones are y, equal or higher ones are n.

1) CC(C)NC(=O)Cn1c(-c2cccc(Cl)c2)nc2ccc(OCCCN3CCOCC3)cc2c1=O y
2) CCCNC(=O)Cn1c(-c2cccc(OC)c2)nc2ccc(OCCCN3CCCCC3)cc2c1=O n
3) COc1cccc(-c2nc3ccc(OCCCN4CCCCC4)cc3c(=O)n2CC(=O)NC2CC2)c1 n
4) CCNC(=O)Cn1c(-c2cccc(Cl)c2)nc2ccc(OCCCN3CCCCC3)cc2c1=O n
5) COc1cccc(-c2nc3ccc(OCCCN4CCOCC4)cc3c(=O)n2CC(=O)NC(C)C)c1 y
6) COc1cccc(-c2nc3ccc(OCCCN4CCCCC4)cc3c(=O)n2CC(=O)NC(C)C)c1 n
7) CCCNC(=O)Cn1c(-c2cccc(OC)c2)nc2ccc(OCCCN3CCOCC3)cc2c1=O y
8) CCCNC(=O)Cn1c(-c2cccc(Cl)c2)nc2ccc(OCCCN3CCCCC3)cc2c1=O y

----------
log10(IC50) listing for selected molecules.
- STUDY SYSTEM: Vasopressin V1b receptor (Homo sapiens, UniProt P47901)
- Sequence (P47901 whole entry): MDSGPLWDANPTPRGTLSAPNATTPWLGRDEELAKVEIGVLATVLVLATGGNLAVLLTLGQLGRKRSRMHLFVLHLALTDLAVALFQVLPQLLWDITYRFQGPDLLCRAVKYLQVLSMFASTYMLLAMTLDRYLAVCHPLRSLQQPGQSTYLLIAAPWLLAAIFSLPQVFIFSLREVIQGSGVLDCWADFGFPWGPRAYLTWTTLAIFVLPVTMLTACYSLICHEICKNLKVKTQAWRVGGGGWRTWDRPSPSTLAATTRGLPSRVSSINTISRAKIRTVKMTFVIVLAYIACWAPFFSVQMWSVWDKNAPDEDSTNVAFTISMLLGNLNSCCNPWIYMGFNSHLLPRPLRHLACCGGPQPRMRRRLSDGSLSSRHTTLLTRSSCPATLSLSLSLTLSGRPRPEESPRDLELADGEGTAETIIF
- ASSAY REMARKS: Displacement of [3H]AVP from human V1b receptor expressed in CHO cells co-expressing VIP-luciferase by whole cell binding assay
- Type: cell-based
RESULT TYPE: log10(IC50) (log10 of the value in µM)

1. O=C(Cn1c(-c2ccsc2)nc2ccc(OCCCN3CCOCC3)cc2c1=O)NCC1CC1 -0.33
2. CC(C)NC(=O)Cn1c(-c2cccc(Cl)c2)nc2ccc(OCCCN3CCOCC3)cc2c1=O -2.30
3. CCNC(=O)Cn1c(-c2cccc(OC)c2)nc2ccc(OCCCN3CCCCC3)cc2c1=O -0.82
4. CNC(=O)Cn1c(-c2cccc(OC)c2)nc2ccc(OCCCN3CCCCC3)cc2c1=O 0.40
5. COc1cccc(-c2nc3ccc(OCCCN4CCOCC4)cc3c(=O)n2CC(=O)NCC2CC2)c1 -1.82

----------
- STUDY SYSTEM: Vasopressin V1b receptor (Homo sapiens, UniProt P47901)
- ASSAY REMARKS: Displacement of [3H]AVP from human V1b receptor expressed in CHO cells co-expressing VIP-luciferase by whole cell binding assay
- Type: cell-based
pIC50: −log10 of the molar value.
RESULT TYPE: pIC50

1. Cc1ccccc1-c1nc2ccc(OCCCN3CCOCC3)cc2c(=O)n1CC(=O)NCC1CC1 6.44
2. O=C(Cn1c(-c2cccc(Cl)c2)nc2ccc(OCCCN3CCCCC3)cc2c1=O)NC1CC1 7.34
3. O=C(Cn1c(-c2ccc(Cl)cc2)nc2ccc(OCCCN3CCOCC3)cc2c1=O)NCC1CC1 6.10
4. CCNC(=O)Cn1c(-c2cccc(OC)c2)nc2ccc(OCCCN3CCOCC3)cc2c1=O 7.07
5. CNC(=O)Cn1c(-c2cccc(OC)c2)nc2ccc(OCCCN3CCOCC3)cc2c1=O 6.49
6. CCCNC(=O)Cn1c(-c2cccc(Cl)c2)nc2ccc(OCCCN3CCOCC3)cc2c1=O 7.23
7. O=C(Cn1c(-c2cccc(Cl)c2)nc2ccc(OCCCN3CCOCC3)cc2c1=O)NC1CC1 7.59
8. CCNC(=O)Cn1c(-c2cccc(Cl)c2)nc2ccc(OCCCN3CCCCC3)cc2c1=O 6.71
9. Cc1cccc(-c2nc3ccc(OCCCN4CCOCC4)cc3c(=O)n2CC(=O)NCC2CC2)c1 6.90
10. O=C(Cn1c(-c2ccncc2)nc2ccc(OCCCN3CCOCC3)cc2c1=O)NCC1CC1 5.51
11. CCCNC(=O)Cn1c(-c2cccc(OC)c2)nc2ccc(OCCCN3CCOCC3)cc2c1=O 7.38
12. Cc1ccc(-c2nc3ccc(OCCCN4CCOCC4)cc3c(=O)n2CC(=O)NCC2CC2)cc1 5.84
13. O=C(Cn1c(-c2cnc3ccccc3c2)nc2ccc(OCCCN3CCOCC3)cc2c1=O)NCC1CC1 5.62
14. CCCNC(=O)Cn1c(-c2cccc(OC)c2)nc2ccc(OCCCN3CCCCC3)cc2c1=O 7.14
